- Measured Target: Glutamate carboxypeptidase 2 (Homo sapiens)
- Sequence (Q04609 whole entry): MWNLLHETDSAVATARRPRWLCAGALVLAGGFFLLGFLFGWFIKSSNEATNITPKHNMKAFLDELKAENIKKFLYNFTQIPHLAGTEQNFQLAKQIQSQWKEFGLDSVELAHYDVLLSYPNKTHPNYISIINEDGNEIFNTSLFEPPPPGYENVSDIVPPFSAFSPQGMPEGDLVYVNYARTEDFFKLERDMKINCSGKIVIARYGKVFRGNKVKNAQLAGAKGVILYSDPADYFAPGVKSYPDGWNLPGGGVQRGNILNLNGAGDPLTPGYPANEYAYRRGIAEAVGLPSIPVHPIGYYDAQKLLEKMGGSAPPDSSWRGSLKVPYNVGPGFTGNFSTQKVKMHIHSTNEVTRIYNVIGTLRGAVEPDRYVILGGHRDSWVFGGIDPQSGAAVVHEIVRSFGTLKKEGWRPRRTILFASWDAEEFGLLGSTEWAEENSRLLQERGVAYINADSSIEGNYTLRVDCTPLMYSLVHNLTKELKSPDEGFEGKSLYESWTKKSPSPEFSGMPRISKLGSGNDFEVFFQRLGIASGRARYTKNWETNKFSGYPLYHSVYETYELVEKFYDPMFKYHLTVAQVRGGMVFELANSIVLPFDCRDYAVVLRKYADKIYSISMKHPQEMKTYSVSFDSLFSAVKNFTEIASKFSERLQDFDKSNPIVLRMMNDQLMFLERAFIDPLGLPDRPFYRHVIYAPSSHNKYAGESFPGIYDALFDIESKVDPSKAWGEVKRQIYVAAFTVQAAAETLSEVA
- Test Protocol: Inhibition of human cloned glutamate carboxypeptidase 2

- Compound: "N#CC[C@H](NC(=O)N[C@@H](CCCCNC(=O)c1ccc(I)cc1)C(=O)O)C(=O)O"
  Measurement Units: "µM"
  Ki: 0.132
- Compound: "NC(=O)C[C@H](NC(=O)N[C@@H](CCCCNC(=O)c1ccc(I)cc1)C(=O)O)C(=O)O"
  Measurement Units: "µM"
  Ki: 0.32
- Compound: "O=C(N[C@@H](CCCCNC(=O)c1ccc(I)cc1)C(=O)O)N[C@@H](Cc1ccncc1)C(=O)O"
  Measurement Units: "µM"
  Ki: 0.105
- Compound: "CCC[C@H](NC(=O)N[C@@H](CCCCNC(=O)c1ccc(I)cc1)C(=O)O)C(=O)O"
  Measurement Units: "µM"
  Ki: 0.0523
- Compound: "O=C(N[C@@H](CCCCNC(=O)c1ccc(I)cc1)C(=O)O)NC1(C(=O)O)CC1"
  Measurement Units: "µM"
  Ki: 0.318
- Compound: "O=C(O)CNC(=O)N[C@@H](CCCCNC(=O)c1ccc(I)cc1)C(=O)O"
  Measurement Units: "µM"
  Ki: 1.32
- Compound: "COc1cc(C(NC(=O)N[C@@H](CCCCNC(=O)c2ccc(I)cc2)C(=O)O)C(=O)O)ccc1O (some centres undefined)"
  Measurement Units: "µM"
  Ki: 0.285
- Compound: "O=C(N[C@@H](CCCCNC(=O)c1ccc(I)cc1)C(=O)O)N[C@@H](Cc1cccs1)C(=O)O"
  Measurement Units: "µM"
  Ki: 0.0162
- Compound: "O=C(N[C@@H](CCCCNC(=O)c1ccc(I)cc1)C(=O)O)N[C@@H](Cc1cccnc1)C(=O)O"
  Measurement Units: "µM"
  Ki: 0.0972
